experimentalTarget: OccJ S91G (Agrobacterium tumefaciens, UniProt P0A4F8, S91G)
Construct: The mature LAO expression plasmid, LAO-Q122A, OccJ-S91G and OccJ-N202D were chemically synthesized; pET-28a); host or cells: E. coli BL21
Sequence (P0A4F8 21-276 S91G): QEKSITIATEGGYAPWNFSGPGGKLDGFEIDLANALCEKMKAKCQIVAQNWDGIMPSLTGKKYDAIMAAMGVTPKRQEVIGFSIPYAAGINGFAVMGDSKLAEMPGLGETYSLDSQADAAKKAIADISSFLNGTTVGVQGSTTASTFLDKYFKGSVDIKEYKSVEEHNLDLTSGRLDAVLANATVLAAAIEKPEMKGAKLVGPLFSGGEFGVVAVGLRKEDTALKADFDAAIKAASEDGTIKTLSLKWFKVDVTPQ
Format: binding
appliedConditions: ITC, 20 °C
pKd: −log10 of the molar value.

{"structureAsSmiles": "C[C@@H](N[C@@H](CCCN=C(N)N)C(=O)O)C(=O)O", "pKd": 4.70}

* * *

experimentalTarget: OccJ WT (Agrobacterium tumefaciens, UniProt P0A4F8)
Construct: The mature PBP OccJ (256 aa without the signal peptide) expression plasmid was obtained by cloning the occJ gene lacking the first twenty residues; hexahistidine (C); made in house; host or cells: E. coli BL21
Sequence (P0A4F8 21-276): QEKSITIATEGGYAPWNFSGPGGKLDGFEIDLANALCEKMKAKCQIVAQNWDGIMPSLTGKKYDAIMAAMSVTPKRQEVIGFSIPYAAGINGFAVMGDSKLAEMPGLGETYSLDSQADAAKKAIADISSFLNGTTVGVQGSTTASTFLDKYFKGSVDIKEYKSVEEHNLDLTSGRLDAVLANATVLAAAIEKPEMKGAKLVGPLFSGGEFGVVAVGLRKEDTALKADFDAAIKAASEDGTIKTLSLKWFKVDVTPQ
assayProcedure: biochemical
Assay type: binding
appliedConditions: intrinsic protein fluorescence titration; 20 °C; 50 mM Tris-HCl pH 8.0, 150 mM NaCl; 1 µM protein; read-out: K D (F)
pKd: −log10 of the molar value.
// pKd lookup, one value per entry
quantity: pKd

{"molecule": "C[C@@H](N[C@@H](CCCCN)C(=O)O)C(=O)O [lysopine]", "quantity": "pKd", "testResult": 6.85}
{"molecule": "N=C(N)NCCCC[C@H](NCC(=O)O)C(=O)O [homo-noroctopine]", "quantity": "pKd", "testResult": 5.33}
{"molecule": "C[C@@H](N[C@@H](CCCN=C(N)N)C(=O)O)C(=O)O [octopine]", "quantity": "pKd", "testResult": 8.40}
{"molecule": "CC(N[C@@H](Cc1cnc[nH]1)C(=O)O)C(=O)O (stereo partly drawn) [histopine]", "quantity": "pKd", "testResult": 4.48}
{"molecule": "NC(N)=NCCC[C@H](NCC(=O)O)C(=O)O [noroctopine]", "quantity": "pKd", "testResult": 6.72}
{"molecule": "C[C@@H](N[C@@H](CCCN)C(=O)O)C(=O)O [octopinic acid]", "quantity": "pKd", "testResult": 7.77}
